Just for reference, patent US20240301076A1 is where these values come from.

Molecular target: T1, human CXCR2 (human, UniProt P25025 1-360)
T1 sequence: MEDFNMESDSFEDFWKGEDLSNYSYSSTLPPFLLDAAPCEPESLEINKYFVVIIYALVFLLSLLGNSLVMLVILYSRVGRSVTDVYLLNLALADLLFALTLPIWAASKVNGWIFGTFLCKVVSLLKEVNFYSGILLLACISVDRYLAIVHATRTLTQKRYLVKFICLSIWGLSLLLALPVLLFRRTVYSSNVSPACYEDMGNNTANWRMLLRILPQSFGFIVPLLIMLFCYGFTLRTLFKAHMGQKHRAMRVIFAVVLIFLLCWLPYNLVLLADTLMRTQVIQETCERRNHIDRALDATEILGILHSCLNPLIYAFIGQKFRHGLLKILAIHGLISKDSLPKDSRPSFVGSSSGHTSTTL
Assay: cell-based or functional assay
Define the label as yes (1) when IC50, CXCL8, Tango assay is strictly less than 0.1 nM and as no (0) in all remaining cases.

Look over these answered cases.
Binder	Group
BKO-4A8 variant VL N95aQ (antibody, human IgG4 S228P, lambda, V domains shown, IgG4 S228P, lambda; parental heavy chain; also called 4A8 VL N95aQ) VH: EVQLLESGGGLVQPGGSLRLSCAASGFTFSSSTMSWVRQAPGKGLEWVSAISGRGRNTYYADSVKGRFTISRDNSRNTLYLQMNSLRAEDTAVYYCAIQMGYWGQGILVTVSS VL: QSALTQPPSASGSPGQSVTISCIGTSSDVGGYNYVSWYQQHPDKAPKLMIYEVNKRPSGVPDRFSGSKSGNTASLTVSGLQAEDEADYYCSSYAGNNQFGVFGGGTKLTVLG	yes (1)
BKO-4A8 variant VL N94K (antibody, human IgG4 S228P, lambda, V domains shown, IgG4 S228P, lambda; parental heavy chain; also called 4A8 VL N94K) VH: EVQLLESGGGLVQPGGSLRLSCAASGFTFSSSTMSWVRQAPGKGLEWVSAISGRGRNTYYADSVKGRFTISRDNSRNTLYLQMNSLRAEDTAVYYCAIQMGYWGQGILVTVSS VL: QSALTQPPSASGSPGQSVTISCIGTSSDVGGYNYVSWYQQHPDKAPKLMIYEVNKRPSGVPDRFSGSKSGNTASLTVSGLQAEDEADYYCSSYAGKNNFGVFGGGTKLTVLG	no (0)
BKO-4A8 variant VL N94S (antibody, human IgG4 S228P, lambda, V domains shown, IgG4 S228P, lambda; parental heavy chain; also called 4A8 VL N94S) VH: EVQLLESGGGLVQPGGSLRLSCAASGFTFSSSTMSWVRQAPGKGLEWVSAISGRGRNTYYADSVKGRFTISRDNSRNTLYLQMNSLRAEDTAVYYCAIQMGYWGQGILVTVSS VL: QSALTQPPSASGSPGQSVTISCIGTSSDVGGYNYVSWYQQHPDKAPKLMIYEVNKRPSGVPDRFSGSKSGNTASLTVSGLQAEDEADYYCSSYAGSNNFGVFGGGTKLTVLG	no (0)

Qu. Please let me know if BKO-4A8 variant VH M34H (antibody, human IgG4 S228P, lambda, V domains shown, IgG4 S228P, lambda; parental light chain; also called 4A8 VH M34H) VH: EVQLLESGGGLVQPGGSLRLSCAASGFTFSSSTHSWVRQAPGKGLEWVSAISGRGRNTYYADSVKGRFTISRDNSRNTLYLQMNSLRAEDTAVYYCAIQMGYWGQGILVTVSS VL: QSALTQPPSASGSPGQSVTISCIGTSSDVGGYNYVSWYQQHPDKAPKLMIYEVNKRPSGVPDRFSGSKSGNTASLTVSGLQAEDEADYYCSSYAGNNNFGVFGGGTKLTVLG shows IC50, CXCL8, Tango assay below 0.1 nM.
Ans. no (0)

Qu. Please state whether IC50, CXCL8, Tango assay is below 0.1 nM for BKO-4A8 variant VH N56S (antibody, human IgG4 S228P, lambda, V domains shown, IgG4 S228P, lambda; parental light chain; also called 4A8 VH N56S) VH: EVQLLESGGGLVQPGGSLRLSCAASGFTFSSSTMSWVRQAPGKGLEWVSAISGRGRSTYYADSVKGRFTISRDNSRNTLYLQMNSLRAEDTAVYYCAIQMGYWGQGILVTVSS VL: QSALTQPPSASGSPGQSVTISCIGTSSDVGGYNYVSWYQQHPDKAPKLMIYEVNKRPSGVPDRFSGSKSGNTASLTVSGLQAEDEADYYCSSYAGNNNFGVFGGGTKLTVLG
Ans. no (0)

Qu. Confirm or reject: IC50, CXCL8, Tango assay of BKO-4A8 variant VH M96Q (antibody, human IgG4 S228P, lambda, V domains shown, IgG4 S228P, lambda; parental light chain; also called 4A8 VH M96Q) VH: EVQLLESGGGLVQPGGSLRLSCAASGFTFSSSTMSWVRQAPGKGLEWVSAISGRGRNTYYADSVKGRFTISRDNSRNTLYLQMNSLRAEDTAVYYCAIQQGYWGQGILVTVSS VL: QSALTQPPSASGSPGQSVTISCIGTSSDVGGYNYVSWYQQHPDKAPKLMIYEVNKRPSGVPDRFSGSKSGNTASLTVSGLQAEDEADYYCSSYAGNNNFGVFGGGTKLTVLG lies strictly below 0.1 nM
Ans. no (0)

Qu. Please indicate whether the reported IC50, CXCL8, Tango assay of BKO-4A8 variant VH M96A (antibody, human IgG4 S228P, lambda, V domains shown, IgG4 S228P, lambda; parental light chain; also called 4A8 VH M96A) VH: EVQLLESGGGLVQPGGSLRLSCAASGFTFSSSTMSWVRQAPGKGLEWVSAISGRGRNTYYADSVKGRFTISRDNSRNTLYLQMNSLRAEDTAVYYCAIQAGYWGQGILVTVSS VL: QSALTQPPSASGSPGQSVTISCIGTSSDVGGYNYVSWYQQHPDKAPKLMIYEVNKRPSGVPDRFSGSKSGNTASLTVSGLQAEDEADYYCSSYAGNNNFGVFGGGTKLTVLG is strictly below 0.1 nM.
Ans. no (0)

Qu. Would you kindly verify if IC50, CXCL8, Tango assay of BKO-4A8 variant VH M96K (antibody, human IgG4 S228P, lambda, V domains shown, IgG4 S228P, lambda; parental light chain; also called 4A8 VH M96K) VH: EVQLLESGGGLVQPGGSLRLSCAASGFTFSSSTMSWVRQAPGKGLEWVSAISGRGRNTYYADSVKGRFTISRDNSRNTLYLQMNSLRAEDTAVYYCAIQKGYWGQGILVTVSS VL: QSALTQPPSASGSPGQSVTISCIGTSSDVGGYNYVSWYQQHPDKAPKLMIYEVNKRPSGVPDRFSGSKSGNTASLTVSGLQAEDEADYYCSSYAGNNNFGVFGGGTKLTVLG is strictly less than 0.1 nM?
Ans. yes (1)

Qu. Identify whether the binder BKO-4A8 variant VH I94K (antibody, human IgG4 S228P, lambda, V domains shown, IgG4 S228P, lambda; parental light chain; also called 4A8 VH I94K) VH: EVQLLESGGGLVQPGGSLRLSCAASGFTFSSSTMSWVRQAPGKGLEWVSAISGRGRNTYYADSVKGRFTISRDNSRNTLYLQMNSLRAEDTAVYYCAKQMGYWGQGILVTVSS VL: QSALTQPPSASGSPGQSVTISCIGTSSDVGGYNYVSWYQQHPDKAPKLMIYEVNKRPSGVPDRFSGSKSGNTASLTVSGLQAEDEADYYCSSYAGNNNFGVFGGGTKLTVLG records IC50, CXCL8, Tango assay below 0.1 nM.
Ans. yes (1)
